B1: Gamma-crystallin S, residues 96 to 176; numbered along this chain, P22914 (parent)
chain: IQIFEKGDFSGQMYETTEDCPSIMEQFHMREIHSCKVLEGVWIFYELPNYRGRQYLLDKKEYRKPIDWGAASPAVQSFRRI

Variants of: B1
procedureText: abundance fitness (aPCA) (normalised: wild type 0, dead -1); higher = more abundant; growth selection in yeast, the domain comes from the species named
assayContext: Homo sapiens
Binning scheme for abundance fitness: range 1: < -0.2; range 2: ≥ -0.2 and < 0; range 3: ≥ 0

stdin: Hi, small favor: classify `IQIFEKGDFSGQMYETTEDCPSIMEQFHMREIHSCKVLPGVWIFYELPNYRGRQYLLDKKEYRKPIDWGAASPAVQSFRRI` by its abundance fitness when you get a moment.
stdout: range 1

stdin: Next: `IQIFEKGDFSGQMYETTEDCPSIMEQFHMREIHSCKVLETVWIFYELPNYRGRQYLLDKKEYRKPIDWGAASPAVQSFRRI`
stdout: range 1

stdin: Next: `IQIFEKGDFSGQMYETTEDCPSIMEQFHMREIHSCKVLEGVWIFYELPNYRGRQYVLDKKEYRKPIDWGAASPAVQSFRRI`
stdout: range 2

stdin: Next: `IQIFEKGDFSGQMYETTEDCPSIMEQFHMREIHSCKVLEGVWIFYELPNYRGRQYLLDKKEYRKPIDWGAASPAVQSFRHI`
stdout: range 1

stdin: Next: `IQIFEGGDFSGQMYETTEDCPSIMEQFHMREIHSCKVLEGVWIFYELPNYRGRQYLLDKKEYRKPIDWGAASPAVQSFRRI`
stdout: range 3
